experiment: protein stability index of a GFP-peptide fusion (GPS, HEK-293T) (PSI 1-6); higher = more stable; settings: treatment: DMSO; c terminus: a fixed tail appended;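 note: 24-mer peptide tiles fused after GFP, lentivirally expressed, FACS-sorted into six equal bins by GFP/DsRed ratio, decoded by Illumina sequencing, PSI is the read-weighted mean bin number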
protein stability index of 5 or higher: satisfied. Under 5: not satisfied.

Form field: protein stability index at least 5? Entry: GSAPPRATPGGGTGEAARPHKGLN [PCDHGC5]
satisfied

Could you do the same for YGDWTSGENSDGCYEHFAELDIPQ [CLPTM1] , please?
not satisfied

Could you do the same for EARARARANRGILQQERQRLGQRQ [DNAJC4] , please?
not satisfied

Could you do the same for PDEMRMQALLIRERILGPSHPDTS [FEM1A] , please?
not satisfied

Could you do the same for CERHEKGVLHKHQRALHKYSLMKR [SNX8] , please?
not satisfied

Could you do the same for TIEDEDVKARKQEIIKVTEQLIEA [CAMK2D] , please?
satisfied

Could you do the same for MVEDDSRKEMTAACTPRRRIINLT [MLH1] , please?
not satisfied
